# Assayed Target: human NK2 receptor (Homo sapiens)
# Construct: expressed in transfected cells
# Experiment: Binding assay of NK2 receptor expressed in COS or CHO cells, displacement of 125I-NKA (Table 1, hNK2)
Property Measured: pIC50
Entry type: numeric. Quantity: pIC50, the -log10 of concentration in molar units.

Lookup: Could you share which pIC50 value was measured for CN(Cc1ccccc1)C(=O)[C@H](Cc1c[nH]c2ccccc12)NC(=O)N1CCC(N2C(=O)NCc3ccccc32)CC1 [Example 11] ?
Found: 7.22

----------
# Assayed Target: human NK1R (Homo sapiens)
# Construct: expressed in transfected cells
# Sequence (P25103 whole entry): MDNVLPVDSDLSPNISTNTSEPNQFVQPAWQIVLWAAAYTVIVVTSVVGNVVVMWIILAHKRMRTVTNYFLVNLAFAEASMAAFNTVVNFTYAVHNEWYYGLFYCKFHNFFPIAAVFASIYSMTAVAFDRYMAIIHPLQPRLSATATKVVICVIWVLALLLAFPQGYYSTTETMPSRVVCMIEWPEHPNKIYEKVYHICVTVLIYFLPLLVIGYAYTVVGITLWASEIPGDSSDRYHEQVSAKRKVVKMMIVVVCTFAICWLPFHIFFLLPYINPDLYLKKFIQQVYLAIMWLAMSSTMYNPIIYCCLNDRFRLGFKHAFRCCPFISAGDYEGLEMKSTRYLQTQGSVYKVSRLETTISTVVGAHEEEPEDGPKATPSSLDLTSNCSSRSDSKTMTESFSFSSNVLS
# Experiment: Binding assay of human NK1R expressed in COS or CHO cells, displacement of 125I-substance P (Table 1, hNK1)
Property Measured: IC50
Kindly report the value followed by its unit.

Lookup: So what IC50 did CN(Cc1ccccc1)C(=O)[C@H](Cc1c[nH]c2ccccc12)NC(=O)N1CCC(N2C(=O)NCc3ccccc32)CC1 get with human NK1R (Homo sapiens)?
Found: 100 nM

----------
# Assayed Target: human NK2 receptor (Homo sapiens)
# Construct: expressed in transfected cells
# Sequence (P21452 1-398): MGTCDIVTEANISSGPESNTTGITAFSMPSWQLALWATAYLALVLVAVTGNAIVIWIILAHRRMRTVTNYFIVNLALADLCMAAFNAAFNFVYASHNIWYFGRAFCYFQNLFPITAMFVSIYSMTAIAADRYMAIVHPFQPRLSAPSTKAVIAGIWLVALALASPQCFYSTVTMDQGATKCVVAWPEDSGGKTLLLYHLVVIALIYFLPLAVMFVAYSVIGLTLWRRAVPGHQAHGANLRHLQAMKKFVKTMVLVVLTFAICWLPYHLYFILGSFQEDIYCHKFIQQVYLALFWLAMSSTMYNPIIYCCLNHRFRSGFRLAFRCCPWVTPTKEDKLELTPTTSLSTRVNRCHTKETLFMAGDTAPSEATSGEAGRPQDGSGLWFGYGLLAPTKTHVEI
# Experiment: Binding assay of NK2 receptor expressed in COS or CHO cells, displacement of 125I-NKA (Table 1, hNK2)
# Test Context: human NK2 receptor, 125I-NKA ligand; read-out: hNK2 (IC50 nM)
Entries and their log10(IC50) values follow.
On a log10 scale: recorded IC50, unit nM.

Solved cases below.
C[C@H](NC(=O)[C@H](Cc1c[nH]c2ccccc12)NC(=O)N1CCC2(CCc3ccccc32)CC1)c1ccccc1
1.20
CN(Cc1cc(Cl)cc(Cl)c1)C(=O)[C@H](Cc1c[nH]c2ccccc12)NC(=O)N1CCC2(CC1)CN(S(C)(=O)=O)c1ccccc12
2.26
CN(Cc1ccccc1)C(=O)[C@H](COCc1ccccc1)NC(=O)N1CCC2(CC1)CN(S(C)(=O)=O)c1ccccc12
1.78

Lookup: Short answer please: log10(IC50), human NK2 receptor (Homo sapiens), entry CN(Cc1ccccc1)C(=O)[C@H](Cc1c[nH]c2ccccc12)NC(=O)N1CCN(Cc2ccccc2)CC1
Found: 2.00

Lookup: Notebook entry, human NK2 receptor (Homo sapiens) assay: log10(IC50) of Cc1ccccc1CNC(=O)[C@H](Cc1c[nH]c2ccccc12)NC(=O)N1CCC2(CCc3ccccc32)CC1 = ?
Found: 1.18

----------
# Assayed Target: human NK1R (Homo sapiens)
# Construct: expressed in transfected cells
# Experiment: Binding assay of human NK1R expressed in COS or CHO cells, displacement of 125I-substance P (Table 1, hNK1)
# Test Context: human NK1 receptor, 125I-substance P ligand; read-out: hNK1 (IC50 nM)
Property Measured: IC50

Guide cases for IC50, answers given:
Cc1ccc(CNC(=O)[C@H](Cc2c[nH]c3ccccc23)NC(=O)N2CCC3(CCc4ccccc43)CC2)cc1 [Example 18]
100 nM
CC(=O)N1CC2(CCN(C(=O)N[C@@H](Cc3c[nH]c4ccccc34)C(=O)N(C)Cc3ccccc3)CC2)c2ccccc21 [Example 6]
15 nM
CN(Cc1ccccc1)C(=O)[C@H](Cc1c[nH]c2ccccc12)NC(=O)N1CCC(c2ccccc2)CC1 [Example 7]
60 nM
C[C@H](NC(=O)[C@H](Cc1c[nH]c2ccccc12)NC(=O)N1CCC2(CCc3ccccc32)CC1)c1ccccc1 [Example 21]
80 nM

Lookup: Please give the measured IC50 for this compound: Cc1cc(Cl)cc(CN(C)C(=O)[C@H](Cc2c[nH]c3ccccc23)NC(=O)N2CCC3(CC2)CN(S(C)(=O)=O)c2ccccc23)c1 [Example 29]
Found: 2 nM

Lookup: IC50 lookup needed for O=C(NCCc1ccccc1)[C@H](Cc1c[nH]c2ccccc12)NC(=O)N1CCC2(CCc3ccccc32)CC1 [Example 19] , thanks.
Found: 200 nM

Origin of values: patent US5869489A
